target: T1, MMP-26 (human); assay: cell-based or functional assay
T1 sequence: ASDF
Kindly supply the reported % Inhibition of JEG-3 cell invasion, 1 µg/ml (further test) values for the records listed here.
Give bare numbers, in %.

Worked cases, answers included:
[[record]]
binder = "A1-orig (antibody, human IgG4, V domains shown) VH: EVQLLESGGGLVQPGGSLRLSCAASGFTFSYYRMSWVRQAPGKGLEWVSSIGPSGGDTLYADSVKGRFTISRDNSKNTLYLQMNSLRAEDTAVYYCARSFSSGPYYFDYWGQGTLVTVSS VL: QSVLTQPPSASGTPGQRVIISCSGSSSNIGSHYVHWYQQVPGTAPKLLIYRNGQRPSGVPDRFSGFKSGTSASLAISGLRSEDEANYYCATWDDSVLFGGGTTLTVLG"
recorded_result = 53

[[record]]
binder = "A01 (antibody, human IgG4, V domains shown) VH: EVQLLESGGGLVQPGGSLRLSCAASGFTFSAYNMFWVRQAPGKGLEWVSGIGSSGGIAPYADSVKGRFTISRDNSKNTLYLQMNSLRAEDTAVYYCARAAYEVENWFDPWGQGTLVTVSS VL: DIQMTQSPGTLSLSPGERATLSCRASQIVRSTYLAWYQQKPGQAPRLLIYGTSSRATGVPDRFSGSGSGTDFTLTISGLEPEDFALYYCQRYGDSPPITFGQGTRLEITR"
recorded_result = 30

[[record]]
binder = "D6-orig (antibody, human IgG4, V domains shown) VH: EVQLLESGGGLVQPGGSLRLSCAASGFTFSMYSMRWVRQAPGKGLEWVSSIYPSGGSTEYADSVKGRFTISRDNSKNTLYLQMNSLRAEDTAVYYCAREGGENDYWGQGTLVTVSS VL: DIQMTQSPLSLSASVGDRVAITCRASQSIDTYLNWYQQKPGKAPKLLIYAASKLEDGVPSRFSGSGTGTDFTLTIRSLQPEDFASYFCQQSYSSPGITFGPGTKVEIKR"
recorded_result = 42


Now consider the entry below.
Can you look up the measured % Inhibition of JEG-3 cell invasion, 1 µg/ml (further test) of B10 (antibody, human IgG4, V domains shown) VH: EVQLLESGGGLVQPGGSLRLSCAASGFTFSSYAMMWVRQAPGKGLEWVSWIVPSGGTTFYADSVKGRFTISRDNSKNTLYLQMNSLRAEDTAVYYCARGLYRWGQGTLVTVSSASTKGPSVFP VL: DIQMTQSPSSLSASVGDRVTIACRTSQNVNRYLNWYQHKLGQAPKLLIYGATILQSGVPSRFRGSGSGTDFILTITNLQPEDFAVYYCQQTYSPPLTFGQGTKAEFKGTVAAPSV for me?
6
